# MEASUREMENT_NOTES: binders of probe aFSTL3 on microarray, primary screen, stem cell growth factor project, biochemical, small-molecule microarray, fluorescence 635/667 (AID 1064);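 also: measures binding of the biotinylated anti-FSTL3 antibody to printed compounds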
# CONDITIONS_USED: higher = more signal
# key: entry, value: composite z-score
A bare number is all that is needed in reply.

# COMPOUND, QUANTITATIVE_RESULT
rows = [
    ("COc1cc2c(cc1OC)CN(C(=O)[C@H]1[C@@H]3C(=O)O[C@@H](c4ccccc4)[C@@H](c4ccccc4)N3[C@@H](c3ccc(O)cc3)[C@]13C(=O)Nc1ccc(C#CCNC(N)=O)cc13)CC2", -0.297),
    ("CC(C)N1C(=O)c2ccccc2[C@](C)(C(=O)NCc2ccccc2)[C@@H]1c1ccc(CO)cc1", 0.197),
]

### Prompt Quick one: composite z-score for "COCCOC(=O)N1C(=O)[C@@]2(c3cc(C#Cc4ccc(OC)cc4)ccc31)[C@H](c1ccccc1OCCO)N1[C@H](c3ccccc3)[C@H](c3ccccc3)OC(=O)[C@H]1[C@@H]2C(=O)N1CCN(c2ncccn2)CC1" ?
### Response -0.173

### Prompt Quick one: composite z-score for "O=C1O[C@H](c2ccccc2)[C@H](c2ccccc2)N2[C@H]1[C@@H](C(=O)O)[C@]1(C(=O)Nc3ccc(C#CC4=CCCCC4)cc31)[C@H]2c1ccccc1OCCO" ?
### Response 0.943

### Prompt Quick one: composite z-score for CCOC(=O)C1=CCC(c2ccc(C)cc2)N(S(=O)(=O)c2ccc(C)cc2)C1 (stereo unspecified) ?
### Response 0.464

### Prompt Quick one: composite z-score for CCOC1=C2C(CN(S(=O)(=O)c3ccc(C)cc3)C2c2ccc(C)cc2)C2C(=O)N(c3ccccc3)C(=O)C2C1 (stereo unspecified) ?
### Response -0.208

* * *

# MEASUREMENT_NOTES: inhibitors of hydroxyurea-induced Chk1 phosphorylation, primary screen, imaging, HeLa, phospho-Chk1 nuclear intensity (AID 1187); also: test concentration not given here
# CONDITIONS_USED: hydroxyurea-induced phospho-Chk1 immunofluorescence imaging, higher = more signal
PROPERTY_MEASURED: z-score
A bare number is all that is needed in reply.

Check out these entries, answers already filled in.
# COMPOUND, QUANTITATIVE_RESULT
rows = [
    ("O=C1C[C@]2(c3ccc([N+](=O)[O-])cc3)C(=O)N(CCN3CCOCC3)c3cc(CO)ccc3[C@H]2N1C1CCCCC1", -0.355),
    ("CCOC(=O)C[C@H]1[C@H](OC(=O)Cc2ccc3c(c2)OCO3)[C@@H](NC(=O)c2ccc3ccccc3c2)c2cc(OCCCO)ccc2N1C(=O)c1ccccc1", -0.629),
    ("C=CC[C@]12N=C(c3ccc(OCCCO)cc3)O[C@H]1c1ccccc1N(Cc1ccccc1)C2=O", -0.197),
    ("COc1ccc(C(O)C2C=CC3C(=O)NC(=O)C3N2Nc2ccccn2)c2ccccc12 (stereo not given)", -0.22),
]

Now for another entry.
### Prompt Quick one: z-score for CC(C)c1ccc(NN2C(C(O)C(c3ccccc3)c3ccccc3)C=CC3C(=O)N(c4ccccc4)C(=O)C32)cc1 (stereo not given) ?
### Response 0.207

* * *

# SYSTEM: Fibroblast growth factor 2 (Homo sapiens)
# MEASUREMENT_NOTES: FGF2 binders on small-molecule microarrays, primary screen, biochemical, small-molecule microarray, 635/667 nm fluorescence (AID 1133)
# CONDITIONS_USED: small-molecule microarray binding, FGF2, fluorescence 635/667; higher = more signal
PROPERTY_MEASURED: composite z-score

Check out these entries, answers already filled in.
# MOLECULE, PROPERTY_MEASURED, RESULT
data = [
    ("C=CCC(OC(C)=O)[C@@H]1[C@@H](N(Cc2ccc(-c3cccc(C(F)(F)F)c3)o2)C(=O)Cc2ccc(F)cc2)c2cc(OCCCO)ccc2N1C(=O)Cc1ccc(OC)cc1 (stereo partly specified)", "composite z-score", -0.308),
    ("CO[C@H]1O[C@H](CO)[C@@H](OC(=O)Nc2ccc(Br)cc2)[C@H](OC(=O)c2cc3ccccc3[nH]2)[C@H]1OC(=O)c1cc2ccccc2[nH]1", "composite z-score", 0.355),
    ("CCC(CC)C(O)C1C=CC2C(=O)N(C)C(=O)C2N1Nc1ccccc1 (stereo unspecified)", "composite z-score", -0.194),
    ("COC(=O)[C@@]1(Cc2ccc(F)cc2)[C@H]2c3cc(C(=O)N(C)C)n(CC4CC4)c3C[C@H]2CN1C(=O)c1ccccc1", "composite z-score", -0.272),
    ("C=CCNC(=O)[C@H]1[C@@H]2C(=O)O[C@@H](c3ccccc3)[C@@H](c3ccccc3)N2[C@@H](c2ccccc2OCCO)[C@]12C(=O)Nc1ccc(C#CC3=CCCCC3)cc12", "composite z-score", 1.21),
]

### Prompt Quick one: composite z-score for "CCc1oc(CC[C@@H](CO)NC(=O)NCCn2cc(C3(O)CCCCC3)nn2)c(C(=O)OC)c1C(=O)OC" ?
### Response 1.13
